Here, each record is paired with measured IC50 data.
target: full-length recombinant human NEK7 (Homo sapiens, UniProt Q8TDX7); construct: full-length recombinant human NEK7; GST (N); purchased SignalChem N09-10G; host or cells: Sf9 insect cells (baculovirus); test: NEK7 enzymatic assay ([33P]-ATP, casein substrate); type: biochemical; details: Table 2b; recombinant human NEK7, casein substrate
Sequence (Q8TDX7 whole entry): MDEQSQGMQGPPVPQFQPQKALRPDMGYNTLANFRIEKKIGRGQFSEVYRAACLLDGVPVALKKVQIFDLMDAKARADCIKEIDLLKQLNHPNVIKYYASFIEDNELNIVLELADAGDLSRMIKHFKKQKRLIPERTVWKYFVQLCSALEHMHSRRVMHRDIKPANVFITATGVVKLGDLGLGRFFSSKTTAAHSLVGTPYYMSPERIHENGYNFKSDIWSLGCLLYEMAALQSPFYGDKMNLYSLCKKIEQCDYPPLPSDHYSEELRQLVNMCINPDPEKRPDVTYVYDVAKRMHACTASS

- Smiles Code: "Cc1[nH]c2nccc(Oc3ccc(NC(=O)Nc4cc(C(C)(C)C)nn4-c4ccccc4)c(F)c3)c2c1Cl"
  Target Entity: "full-length recombinant human NEK7 (Homo sapiens, UniProt Q8TDX7)"
  IC50: "501 to 1500 nM"
- Smiles Code: "Cn1nc(C(C)(C)C)cc1NC(=O)Nc1ccc(Oc2ccnc3[nH]cc(Cl)c23)cc1F"
  Target Entity: "full-length recombinant human NEK7 (Homo sapiens, UniProt Q8TDX7)"
  IC50: "501 to 1500 nM"
- Smiles Code: "CC(C)(C)c1cc(NC(=O)Nc2ccc(Oc3ccnc4[nH]cc(Cl)c34)cc2F)n(-c2ccccc2)n1"
  Target Entity: "full-length recombinant human NEK7 (Homo sapiens, UniProt Q8TDX7)"
  IC50: "501 to 1500 nM"
- Smiles Code: "Cc1nc2c(Oc3ccc(NC(=O)Nc4cc(C(C)(C)C)nn4-c4ccccc4)c(F)c3)ccnc2[nH]1"
  Target Entity: "full-length recombinant human NEK7 (Homo sapiens, UniProt Q8TDX7)"
  IC50: "> 1500 nM"
- Smiles Code: "CC(C)(C)c1cc(NC(=O)Cc2ccc(Oc3ccnc4[nH]cc(Cl)c34)cc2F)n(-c2ccccc2)n1"
  Target Entity: "full-length recombinant human NEK7 (Homo sapiens, UniProt Q8TDX7)"
  IC50: "> 1500 nM"
- Smiles Code: "Cc1cc(NC(=O)Nc2ccc(Oc3ccnc4[nH]cc(Cl)c34)cc2F)n(-c2ccccc2)n1"
  Target Entity: "full-length recombinant human NEK7 (Homo sapiens, UniProt Q8TDX7)"
  IC50: "> 1500 nM"
- Smiles Code: "O=C(Nc1ccc(Oc2ccnc3[nH]cc(Cl)c23)cc1F)Nc1cc(C2(C(F)(F)F)CC2)nn1-c1ccccc1"
  Target Entity: "full-length recombinant human NEK7 (Homo sapiens, UniProt Q8TDX7)"
  IC50: "> 1500 nM"
- Smiles Code: "CC(C)(C)c1cc(NC(=O)Nc2ccc(Oc3ccnc4[nH]cc(Cl)c34)c(F)c2)n(-c2ccccc2)n1"
  Target Entity: "full-length recombinant human NEK7 (Homo sapiens, UniProt Q8TDX7)"
  IC50: "501 to 1500 nM"
- Smiles Code: "Cc1c[nH]c2nccc(Oc3ccc(NC(=O)Nc4cc(C(C)(C)C)nn4-c4ccccc4)c(F)c3)c12"
  Target Entity: "full-length recombinant human NEK7 (Homo sapiens, UniProt Q8TDX7)"
  IC50: "501 to 1500 nM"
- Smiles Code: "CC(C)(C)c1cc(NC(=O)Nc2ccc(Oc3ncnc4[nH]ccc34)cc2F)n(-c2ccccc2)n1"
  Target Entity: "full-length recombinant human NEK7 (Homo sapiens, UniProt Q8TDX7)"
  IC50: "> 1500 nM"
- Smiles Code: "CC(C)(C)c1cc(NC(=O)Nc2ccc(Oc3ccnc4[nH]cc(C5CC5)c34)cc2F)n(-c2ccccc2)n1"
  Target Entity: "full-length recombinant human NEK7 (Homo sapiens, UniProt Q8TDX7)"
  IC50: "501 to 1500 nM"

Just for reference, patent US20230210853A1 is where these values come from.
